Reference source: PubChem BioAssay (Tox21)

Test: qHTS assay for small molecule agonists of the antioxidant response element (ARE) signaling pathway - cell viability counter screen (AID 743203); further: nearly all actives have a fitted effect of over 55% in size
Details: ARE-bla HepG2 viability, CellTiter-Glo luminescence, 16 h; series mostly up to 73.3 µM
Results filed as inconclusive are left out. Calls of active or inactive are those of the source. The call rests on the fitted dose curve.
Please state which outcome applies, choosing from t (active), f (inactive)

INSERT INTO assay_data (compound, answerlabel) VALUES
  ('CCCCOCCOC(C)=O', 'f'),
  ('CC(C)=CC1C(C(=O)OCc2cccc(Oc3ccccc3)c2)C1(C)C (stereo not drawn)', 'f'),
  ('OC(c1ccc(Cl)cc1)(c1cncnc1)c1ccccc1Cl (stereo not drawn)', 'f'),
  ('COP(=O)(NC(C)=O)SC (stereo not drawn)', 'f'),
  ('CCN(CC)C(=O)C(C)Oc1cccc2ccccc12 (stereo not drawn)', 'f'),
  ('CCC(=O)Nc1ccc(Cl)c(Cl)c1', 'f'),
  ('COP(=S)(OC)SCn1nnc2ccccc2c1=O', 'f'),
  ('CN(C)c1nc(=O)n(C2CCCCC2)c(=O)n1C', 'f'),
  ('CC1(C)C(C(=O)OC(C#N)c2cccc(Oc3ccccc3)c2)C1(C)C (stereo not drawn)', 'f'),
  ('CN(C)c1ccccc1', 'f');

// query State the result this test recorded for CCOP(=S)(OCC)OP(=S)(OCC)OCC .
// result f

// query State the result this test recorded for CCOC(=O)c1ccccc1N .
// result f

// query State the result this test recorded for C[N+](C)(C)CC(=O)O .
// result f

// query State the result this test recorded for Cc1cc(Cl)ccc1N=CN(C)C .
// result f

// query State the result this test recorded for S=c1[nH]c2ccccc2[nH]1 .
// result f

// query State the result this test recorded for CC1(C)Cc2cccc(O)c2O1 .
// result f

// query State the result this test recorded for COc1ccc(CO)cc1 .
// result f

// query State the result this test recorded for CC(C)=CC1C(C(=O)OCN2C(=O)C3=C(CCCC3)C2=O)C1(C)C (stereo not drawn) .
// result f

// query State the result this test recorded for CC1CC(=O)O1 (stereo not drawn) .
// result f

// query State the result this test recorded for O=C1Nc2ccc(Cl)cc2C(c2ccccc2)=NC1O (stereo not drawn) .
// result f

// query State the result this test recorded for Nc1ncn[nH]1 .
// result f

// query State the result this test recorded for Clc1ccccc1-c1nnc(-c2ccccc2Cl)nn1 .
// result f

// query State the result this test recorded for O=NN1CCOCC1 .
// result f

// query State the result this test recorded for COc1ccc(O)c(C(C)(C)C)c1 .
// result f

// query State the result this test recorded for CCCCOC(=O)COC(=O)c1ccccc1C(=O)OCCCC .
// result f

// query State the result this test recorded for CS(=O)(=O)NC(=O)c1cc(Oc2ccc(C(F)(F)F)cc2Cl)ccc1[N+](=O)[O-] .
// result f

// query State the result this test recorded for O=C(O)c1nn(Cc2ccc(Cl)cc2Cl)c2ccccc12 .
// result f

// query State the result this test recorded for CC(C)(O)C(=O)Nc1ccc([N+](=O)[O-])c(C(F)(F)F)c1 .
// result f

// query State the result this test recorded for CC1=C(C(=O)Nc2ccccc2)SCCO1 .
// result f

// query State the result this test recorded for CC(O)CN(CC(C)O)CC(C)O (stereo not drawn) .
// result f

// query State the result this test recorded for Nc1ccc2ccccc2c1 .
// result f

// query State the result this test recorded for CNC(=S)S .
// result f

// query State the result this test recorded for CC(C)COC(=O)c1ccccc1C(=O)OCC(C)C .
// result f

// query State the result this test recorded for c1ccc2c(c1)Nc1ccccc1S2 .
// result f

// query State the result this test recorded for O=[N+]([O-])c1ccc(Nc2ccccc2)cc1 .
// result t

// query State the result this test recorded for CN(C)P(=O)(N(C)C)N(C)C .
// result f

// query State the result this test recorded for CC(C)(c1ccccc1)c1ccc(O)cc1 .
// result t

// query State the result this test recorded for CCNc1nc(Cl)nc(NC(C)(C)C#N)n1 .
// result f
